# Test protocol: Determination of brain to plasma ratio in rat
# Assay type: in vivo
# Experimental parameters: brain and plasma, female Sprague Dawley rats, drug in brain over drug in plasma, read-out: Brain/Plasma Ratio of compound in Rat
Test readout: Kp

>>> observed_result("Cc1cccc(-c2cc([C@@H](C)Sc3nnc(-c4ccn(C)c(=O)c4)n3C)no2)c1")
0.02
>>> observed_result("C[C@@H](Sc1nnc(-c2cn[nH]c(=O)c2)n1C)c1nnn(-c2cccc(Cl)c2)n1")
"< 0.015"
>>> observed_result("Cc1cccc(-c2nc([C@@H](C)Sc3nnc(-c4cn[nH]c(=O)c4)n3C)no2)c1")
0.04
>>> observed_result("Cc1cccc(-n2nnc([C@@H](C)Sc3nnc(-c4cc[nH]c(=O)c4)n3C)n2)c1")
"< 0.01"
>>> observed_result("Cc1cccc(-c2nc([C@@H](C)Sc3nnc(-c4ccn(C)c(=O)c4)n3C)no2)c1")
0.16
>>> observed_result("Cc1cccc(-n2nnc([C@@H](C)Sc3nnc(-c4ccn(C)c(=O)c4)n3C)n2)c1")
0.1
>>> observed_result("Cc1cccc(-n2nnc([C@@H](C)Sc3nnc(-c4cn[nH]c(=O)c4)n3C)n2)c1")
"< 0.01"
>>> observed_result("Cc1cccc(-c2nc([C@@H](C)Sc3nnc(-c4cc[nH]c(=O)c4)n3C)no2)c1")
0.09
>>> observed_result("Cc1cccc(-c2cc([C@@H](C)Sc3nnc(-c4cc[nH]c(=O)c4)n3C)no2)c1")
"< 0.01"
>>> observed_result("Cc1cccc(-c2cc([C@@H](C)Sc3nnc(-c4cn[nH]c(=O)c4)n3C)no2)c1")
0.26
